- TARGET_SYSTEM: BSA (Bos taurus, UniProt P02769)
- Construct: purchased Millipore Sigma-Aldrich
- Sequence (P02769 25-607): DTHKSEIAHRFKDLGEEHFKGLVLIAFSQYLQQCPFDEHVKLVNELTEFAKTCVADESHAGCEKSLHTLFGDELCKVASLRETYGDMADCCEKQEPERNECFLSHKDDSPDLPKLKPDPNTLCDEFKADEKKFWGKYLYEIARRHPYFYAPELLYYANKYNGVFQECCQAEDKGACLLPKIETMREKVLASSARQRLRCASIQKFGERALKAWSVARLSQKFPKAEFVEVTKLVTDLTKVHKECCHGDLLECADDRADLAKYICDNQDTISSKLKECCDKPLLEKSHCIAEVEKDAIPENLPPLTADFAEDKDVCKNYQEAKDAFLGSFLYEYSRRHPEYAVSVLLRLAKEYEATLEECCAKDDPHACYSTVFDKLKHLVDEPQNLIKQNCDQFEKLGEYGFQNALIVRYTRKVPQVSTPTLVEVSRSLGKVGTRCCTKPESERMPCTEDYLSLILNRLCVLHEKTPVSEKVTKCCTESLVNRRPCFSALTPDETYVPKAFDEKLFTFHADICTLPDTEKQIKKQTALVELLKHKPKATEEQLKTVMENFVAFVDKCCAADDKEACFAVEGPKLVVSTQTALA
- EXPERIMENT_DESCRIPTION: DSC thermal unfolding of BSA in water and aqueous solutions of ABS phase-forming components
- Assay type: physicochemical, bovine
- CONDITION_PARAMETERS: 1.0 mg/mL BSA, 0.1 mM component
The following compounds are shown together with reported ΔS values.

// worked examples, ΔS included
>  <COMPOUND>
CCn1cc[n+](C)c1.O=S(=O)([O-])C(F)(F)C(F)(F)C(F)(F)C(F)(F)F

>  <READOUT_LABEL>
ΔS

>  <VALUE>
1.445 KJ/(mol.K)

$$$$
>  <COMPOUND>
C[N+](C)(C)CCO.O=S(=O)([O-])C(F)(F)C(F)(F)C(F)(F)C(F)(F)F [[N1112(OH)][C4F9SO3]]

>  <READOUT_LABEL>
ΔS

>  <VALUE>
1.708 KJ/(mol.K)

$$$$
>  <COMPOUND>
C[N+](C)(C)CCO.C[N+](C)(C)CCO.O=P([O-])(O)O.O=P([O-])(O)O [[N1112(OH)][H2PO4]]

>  <READOUT_LABEL>
ΔS

>  <VALUE>
1.272 KJ/(mol.K)

$$$$
>  <COMPOUND>
CCCCn1cc[n+](C)c1.O=S(=O)([O-])C(F)(F)F [[C4C1Im][CF3SO3]]

>  <READOUT_LABEL>
ΔS

>  <VALUE>
1.476 KJ/(mol.K)

$$$$

Could you now look at the following compound, please?
Please list ΔS recorded for the compound `OC[C@H]1O[C@@](CO)(O[C@H]2O[C@H](CO)[C@@H](O)[C@H](O)[C@H]2O)[C@@H](O)[C@@H]1O` 1.480 KJ/(mol.K)

* * *

- TARGET_SYSTEM: FITC-IFN-α2b (Homo sapiens)
- Construct: single non-glycosylated polypeptide chain with a molecular weight of 19 kDa, comprising 165 amino acids; purchased Millipore Sigma-Aldrich SRP4595-100UG; host or cells: E. coli
- Sequence (P01563 24-188): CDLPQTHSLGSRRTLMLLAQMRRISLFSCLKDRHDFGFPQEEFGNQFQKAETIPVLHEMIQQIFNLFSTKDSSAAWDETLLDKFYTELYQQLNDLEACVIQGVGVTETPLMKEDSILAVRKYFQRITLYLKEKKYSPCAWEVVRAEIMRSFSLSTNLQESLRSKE
- EXPERIMENT_DESCRIPTION: MST binding to FITC-IFN-α2b
- CONDITION_PARAMETERS: 2.7 μM IFN-α2b; max. conc. first capillary in 3rd CAC range; 25 °C; read-out: Kd
READOUT_LABEL: Kd (mM)
Answer in mM, number only, no unit symbol.

Quick one: give measured Kd for `CCn1cc[n+](C)c1.O=S(=O)([O-])C(F)(F)C(F)(F)C(F)(F)C(F)(F)F` 29.9

* * *

- TARGET_SYSTEM: BSA (Bos taurus, UniProt P02769)
- Construct: purchased Millipore Sigma-Aldrich
- EXPERIMENT_DESCRIPTION: Far-UV CD secondary structure of BSA (CONTIN-LL deconvolution)
- Assay type: physicochemical, bovine
- Set-up: unit not given here
- CONDITION_PARAMETERS: 1.0 mg/mL BSA, 55 mM component, 25 °C
Overview of recorded Distorted Beta Sheet for various molecules
Give only the figure.

>  <MOLECULE>
OC[C@H]1O[C@@](CO)(O[C@H]2O[C@H](CO)[C@@H](O)[C@H](O)[C@H]2O)[C@@H](O)[C@@H]1O [Sucrose, sucrose]

>  <Distorted Beta Sheet>
0.026

$$$$
>  <MOLECULE>
C[N+](C)(C)CCO.C[N+](C)(C)CCO.O=P([O-])(O)O.O=P([O-])(O)O [[N1112(OH)][H2PO4]]

>  <Distorted Beta Sheet>
0.055

$$$$
>  <MOLECULE>
CCn1cc[n+](C)c1.O=S(=O)([O-])C(F)(F)C(F)(F)C(F)(F)C(F)(F)F

>  <Distorted Beta Sheet>
0.026

$$$$
>  <MOLECULE>
CCCCn1cc[n+](C)c1.O=S(=O)([O-])C(F)(F)F [[C4C1Im][CF3SO3]]

>  <Distorted Beta Sheet>
0.021

$$$$

# return recorded Distorted Beta Sheet for input C[N+](C)(C)CCO.O=S(=O)([O-])C(F)(F)C(F)(F)C(F)(F)C(F)(F)F [[N1112(OH)][C4F9SO3]] 0.027
